- Test system: FLT3-autoinhibited;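 note: KINOMEscan kinase panel screen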
- assay setup: concentration: 1 μM, replicates: in singlicate; n = 1
assay endpoint: %Inh (%)
Write down the numeric answer in % and omit the unit.

Task: Which %Inh value is on record for C[C@@H](Oc1cc(-n2cnc3cc(-c4ccnc(NCCS(C)(=O)=O)c4)ccc32)sc1C(N)=O)c1ccccc1Cl [GSK907232] ?
Output: 29

Task: Request the reported %Inh associated with COc1cccc(C2=C(Nc3ccc(Cl)c(C(=O)O)c3)C(=O)NC2=O)c1 [SB-390769]
Output: 0

Task: Entry under review: Cc1ccc(S(=O)(=O)Nc2ccc(Nc3nccc(Nc4cccc5[nH]ncc45)n3)cc2)cc1 [GSK581271] . Reported %Inh?
Output: 0

Task: Item under review: Cn1cc(-c2ccc3c(c2)CCN3C(=O)Cc2cccc(F)c2)c2c(N)ncnc21 [GSK2603358] . Reported %Inh?
Output: 0

Task: Which value of %Inh has been reported for COc1cc(Nc2nccc(-c3c(-c4cccc(NC(=O)c5c(F)cccc5F)c4)nn4ncccc34)n2)cc(OC)c1OC [GSK327238] in the records?
Output: 0

Task: Give the measured %Inh of CSc1cccc2c(-c3ccncn3)c(-c3ccc(F)cc3)nn12 [GW514786] .
Output: 0

Task: I'd like to know its %Inh. The molecule in question is COc1cc(Nc2nccc(-c3c(-c4cccc(NC(=O)c5c(F)cccc5F)c4)nn4ccccc34)n2)cc(OC)c1OC [GSK323521]
Output: 0

Task: Query (molecule): c1ccc(-c2n[nH]cc2Nc2ccnc3ccccc23)nc1 [GW694077] ; field requested: %Inh
Output: 8

Task: Fill in: %Inh of Cc1cccc(Nc2nc(N[C@H]3CCNC3)ncc2C(N)=O)c1.Cl [GSK2197149] is ___
Output: 82

Task: What does the record list as %Inh for CCn1c(-c2nonc2N)nc2c(C#CC(C)(C)O)nc(OC[C@H](N)c3ccccc3)cc21 [GSK943949] ?
Output: 0

Task: Recorded %Inh for COc1cc(Nc2nccc(N3CCC(NC(=O)Nc4cccc(C(C)=O)c4)C3)n2)cc(OC)c1OC (stereo not drawn) [GSK1379753] , please?
Output: 0

Task: So what's the measured %Inh for this one? Cc1ccc(C(=O)N2CC[C@@H](O)C2)cc1-n1c(C)cc(OCc2ccc(F)cc2F)c(Br)c1=O
Output: 0
